List of inhibition at 1 µM values.
- targetOrTestSystem: hDGAT1 (Homo sapiens)
- Construct: made in house; host or cells: Sf9 insect cells (baculovirus); microsomal fraction
- Sequence (O75907 1-488): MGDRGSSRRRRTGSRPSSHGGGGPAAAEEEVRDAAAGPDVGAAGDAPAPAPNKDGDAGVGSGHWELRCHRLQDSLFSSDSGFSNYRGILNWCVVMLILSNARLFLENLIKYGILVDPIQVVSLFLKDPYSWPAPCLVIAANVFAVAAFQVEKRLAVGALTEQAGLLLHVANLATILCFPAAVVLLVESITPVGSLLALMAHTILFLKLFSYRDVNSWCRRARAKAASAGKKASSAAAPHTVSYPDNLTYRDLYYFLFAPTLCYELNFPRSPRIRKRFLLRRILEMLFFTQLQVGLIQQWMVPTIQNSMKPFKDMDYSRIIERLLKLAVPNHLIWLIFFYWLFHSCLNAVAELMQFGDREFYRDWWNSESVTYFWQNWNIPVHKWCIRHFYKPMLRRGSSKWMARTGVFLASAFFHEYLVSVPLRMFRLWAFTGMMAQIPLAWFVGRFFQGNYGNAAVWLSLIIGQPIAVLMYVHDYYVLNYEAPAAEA
- assayExplanation: In-vitro DGAT1 assay with hDGAT1 microsomes from Sf9 cells (14C oleoyl CoA, scintillation counting)
- Assay type: biochemical
- appliedConditions: read-out: Percentage inhibition of hDGAT1
- Experimental: Sf9 cells were grown in T25 flasks containing Graces's Insect media with 10% FBS with antibiotic (100 units/mL penicillin, 100 μg/mL streptomycin sulphate, 0.25 μg/mL Amptotericin B as Fungizone) grown in a 27° C. incubator. hDGAT10RF expression clone (RZPDo839C09146 in pDEST vector) was obtained from RZPD, German Science Center for Genomes research, Germany. hDGAT1 bacmid DNA was obtained by transformation of the hDGAT1 expression clone into DH10Bac E. coli competent cells. […]

# annotated cases, reported inhibition at 1 µM shown
# compound, inhibition at 1 µM
rows = [
    ("CCCCCc1ccc(C(=O)Nc2ccc(-c3cnc(CCCC(=O)O)s3)cc2)cc1", "> 50%"),
    ("O=C(O)CN1CCC(c2ncc(-c3ccc(NC(=O)Nc4ccccc4Cl)cc3)s2)CC1", "> 50%"),
    ("O=C(O)CCCc1nnc(-c2ccc(NC(=O)Nc3ccccc3Cl)cc2)s1", "> 50%"),
]

Write down inhibition at 1 µM measured for item `CC(C)(CCc1ncc(-c2ccc(NC(=O)NC3CCCCC3)cc2)s1)C(=O)O`
> 50%

Supply reported inhibition at 1 µM belonging to this compound: O=C(O)CC1CCC(c2ncc(-c3ccc(NC(=O)Nc4cc(F)cc(F)c4)cc3)s2)CC1 (stereo not shown)
> 50%

Please give measured inhibition at 1 µM of the following entry: CC(C)(C)c1ccc(C(=O)Nc2ccc(-c3cnc(C4CCC(C(=O)O)CC4)o3)cc2)cc1 (stereo not shown)
20 to 50%

Return inhibition at 1 µM for the following compound: CC(=O)NC(=O)CC1CCC(c2ncc(-c3ccc(NC(=O)Nc4ccc(F)cc4F)cc3)s2)CC1 (stereo not shown)
> 50%

Using known records, supply inhibition at 1 µM for `O=C(O)CCCc1nnc(-c2ccc(NC(=O)Nc3ccc(Cl)cc3Oc3ccccc3)cc2)s1`
> 50%

Give inhibition at 1 µM for the following compound: O=C(Nc1ccc(-c2cnc(C3CCC(C(=O)O)CC3)s2)cc1)Nc1c(Cl)cccc1C(F)(F)F (stereo not shown)
> 50%
